Sourced from the Deep4Chem optical property database

# protocol: solvent given as SMILES
# run conditions: in ClCCl
experimental endpoint: fluorescence lifetime (ns)
Give the value, in units of ns, as a plain number.

1. CCN(CC)c1ccc2cc(/C=C3\CCCc4c3[o+]c3cc(N(CC)CC)ccc3c4-c3ccccc3C(=O)O)c(=O)oc2c1 ... 0.36
2. Cn1c(=O)cc(C(=O)c2ccccc2)c2sc(-c3ccc(C(F)(F)F)cc3)cc21 ... 1.66
3. CCCCCCCCCCCCNc1cccc2[n+]1[B-](F)(F)n1c(c3cccc4cccc1c43)=N2 ... 2.5

## Task Can you look up the measured fluorescence lifetime of COc1ccc(N(c2ccccc2)c2ccc3ccc4c(N(c5ccccc5)c5ccc(OC)cc5)ccc5ccc2c3c54)cc1 for me?
## Result 9

====

# protocol: solvent given as SMILES
# run conditions: in ClCCl
Hi, to clarify the labels: T covers fluorescence lifetime from 5 ns upward, F covers anything below 5 ns.

Examples with answers:
1. O=c1c2cccc3cccc(c32)c2nc3c4ccccc4c4ccccc4c3n12 ... T
2. COc1ccc(C(=O)c2c(C)c3ccc4cccc5c6cccc7ccc2c(c76)c3c45)cc1 ... T
3. O=C1c2ccccc2-c2cnccc21 ... T
4. CC1=CC(C)=[N+]2C1=C(c1ccccc1)c1c(C)cc(C)n1[B-]2(F)F ... F
5. CC1=C(c2ccc(N(C)C)cc2)C(C)=[N+]2C1=C(c1c(-c3ccccn3)nc3ccccn13)c1c(C)cc(C)n1[B-]2(F)F ... F
6. COc1ccc2c3cccc4c(OC)ccc(c5cccc1c52)c43 ... F
7. CCCCCCCc1ccc(C2=[N+]3C(=C4c5cc(OCC(CC)CC)c(-c6ccc(CCCCCCC)o6)n5[B-](F)(F)[n+]5c4n(c4cc(C(C)(C)C)ccc45)[B-]3(F)F)C=C2OCC(CC)CC)o1 ... F
8. COC(=O)c1[nH]c(-c2ccc(Br)cc2)c2nnc3ccc(OC)cc3c12 ... F
9. COc1nnc(Cl)nn1 ... T
10. COc1ccc(/C=C/c2nc(N3CCOCC3)c3c([n+]2[O-])CCCC3)cc1 ... T

## Task Hello, I need to know if CC1(C)Nc2cc(Cl)ccc2-c2[nH]c3ccccc3c(=O)c21 has measured fluorescence lifetime not below 5 ns. Thanks!
## Result T

## Task Dear colleague, could you confirm whether Cc1cc(-c2ccccc2)cc(C)[o+]1 has fluorescence lifetime at or above 5 ns?
## Result F

## Task hey, is fluorescence lifetime for this one >= 5 ns? CN(C)c1ccc2nc(/C=C/c3cc4c5c(c3)CCCN5CCC4)c(=O)oc2c1
## Result F

## Task Is fluorescence lifetime at least 5 ns? Consider Cc1cc(C)c(C2=[N+]3C(=Cc4c(C)cc(C)n4[B-]3(F)F)c3ccccc32)[nH]1
## Result T

## Task Quick check, fluorescence lifetime >= 5 ns? CCCc1c(C(=O)c2ccc3c4c(cccc24)-c2cccc4c2C3CC=C4)c2ccc3cccc4c5cccc6ccc1c(c65)c2c34 (configuration not stated)
## Result F

## Task Quick check: does FC(F)(F)c1cc2n(n1)[B-]1(c3ccccc3Oc3ccccc31)[n+]1ccc3ccccc3c1-2 have fluorescence lifetime greater than or equal to 5 ns?
## Result F

## Task Can F[B-]1(F)n2cccc2C=C2C=CC=[N+]21 be said to have fluorescence lifetime at or above 5 ns?
## Result T

## Task Determine whether this molecule has fluorescence lifetime no lower than 5 ns: CCN(CC)c1cccc(C=O)c1
## Result T

## Task Test whether the molecule C[Si](C)(C)c1ccc2ccc3c([Si](C)(C)C)ccc4ccc1c2c43 records fluorescence lifetime of 5 ns or higher.
## Result T

## Task Could you verify whether the entry O=Cc1ccc(N(c2ccc(C=O)cc2)c2ccc(-c3ccc4c(c3)C(=O)c3ccccc3C4=O)cc2)cc1 shows fluorescence lifetime of no less than 5 ns?
## Result F

## Task Record C[Si]1(C)c2cc(-c3cccs3)ccc2C=Cc2ccc(-c3cccs3)cc21 ; criterion: fluorescence lifetime no lower than 5 ns. Met?
## Result F

## Task Tell me whether fluorescence lifetime is at least 5 ns here: COc1ccc2oc(=N)c(C#N)cc2c1
## Result F

## Task Please check the record c1ccc(N2N=C(c3ccc4ccc5cccc6ccc3c4c56)CC2c2ccc3ccc4cccc5ccc2c3c45)cc1 (configuration not stated) and state if its fluorescence lifetime is at or above 5 ns.
## Result F

## Task Please indicate if the recorded fluorescence lifetime for COc1ccc(-c2c3ccccc3c(C#Cc3ccccc3)c3cc4ccccc4cc23)cc1 meets or exceeds 5 ns.
## Result T

## Task # bool: fluorescence lifetime of CC(C)(C)NC(=O)c1ccc(-c2ccc(N3c4ccccc4Oc4ccccc43)cc2)c2ccc3c4ccc(F)cc4c4cc(F)ccc4c3c12 >= 5 ns
## Result T

## Task Decide: fluorescence lifetime of CC(=O)O[B-]1(OC(C)=O)OC(/C=C/c2ccc(C)cc2)=CC(/C=C/c2ccc(C)cc2)=[O+]1 >= 5 ns?
## Result F

## Task Could you tell me if the measured fluorescence lifetime of Cc1ccc(N(c2ccccc2)c2ccc3ccc4c(N(c5ccccc5)c5ccc(C)cc5)ccc5ccc2c3c54)cc1 reaches 5 ns or more?
## Result T

## Task Dear colleague, could you confirm whether CCCN1C(=O)c2c3c(c4c(c2C1=O)CCc1cc(-c2ccc(N(C)C)cc2)c(OC)cc1-4)-c1cc(OC)c(-c2ccc(N(C)C)cc2)cc1CC3 has fluorescence lifetime at or above 5 ns?
## Result F

## Task Hello, I need to know if COCCOCCOCCOCC(COCCOCCOCCOC)Oc1cc(/C=C/c2ccc(/C=C(\C#N)c3ccccc3)cc2)c(OC(COCCOCCOCCOC)COCCOCCOCCOC)cc1/C=C/c1ccc(/C=C(\C#N)c2ccccc2)cc1 has measured fluorescence lifetime not below 5 ns. Thanks!
## Result F

## Task Tell me whether fluorescence lifetime is at least 5 ns here: COc1ccc(C#Cc2c3cc4ccccc4cc3c(C#Cc3ccc(OC)cc3)c3cc4ccccc4cc23)cc1
## Result F
